system: OVCAR-3 ovarian; assay: NCI-60 one-dose screen, 48 h; settings: 10 µM unless noted
Compounds without any hit were thinned out: in the full panel of roughly 83,000, 20% have a hit. Active and inactive are the calls of the source. The calls were made as follows: active = growth percent below 10; inactive = the rest.
Labels: T for active, F for inactive

- compound: "O=C(O)C1(Cc2cccc(Nc3nccs3)n2)CCC(Oc2cccc(Cl)c2F)CC1 (stereo not given)"
  assigned-class: "F"
- compound: "N#Cc1cc2[nH]c3ccc(OC(F)(F)F)cc3c2oc1=O"
  assigned-class: "F"
- compound: "Nc1nc(Nc2ccccc2)c(C=Nc2ccccc2)c(=O)[nH]1"
  assigned-class: "F"
- compound: "O=C(NC1CCNCC1)c1[nH]ncc1NC(=O)c1c(Cl)cccc1Cl"
  assigned-class: "T"
- compound: "COc1cc2c(Oc3ccc(NC(=O)C4(C(=O)Nc5ccc(F)cc5)CC4)cc3F)ccnc2cc1OCCCN1CCOCC1"
  assigned-class: "F"
